Origin of values: patent US20240376185A1

molecular target: horse IgG; experiment: ELISA, coated antigen, E. coli supernatant (no SDA 0.255, 0.261)
Classify: met when absorbance at 450 nm is strictly less than 0.8 A450; not met when absorbance at 450 nm is not.

Reference set, count: 5
# Binder, Category label
data = [
    ("SVG06 (VHH) VHH: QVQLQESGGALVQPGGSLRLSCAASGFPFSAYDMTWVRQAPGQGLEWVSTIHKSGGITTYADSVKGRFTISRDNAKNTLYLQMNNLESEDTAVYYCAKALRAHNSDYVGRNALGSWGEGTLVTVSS", "met"),
    ("SVG24 (VHH, not shown: large carriers) VHH: QVQLQQSGGGLVQAGGSLRLSCAASGRTFSTYNIAWFRQAPGKEREFVTAITWGSGNTYYADSVKGRFTISRDNAKNTVFLQMNSLKPDDTAVYYCAARRSLGPTMAFAYEYWGQGTQVTVSS", "met"),
    ("SVG07 (VHH, not shown: large carriers) VHH: QVQLQESGPGLVKPSQTLSLTCTVSGGSITTTAYAWSWIRQPPGKGLEWMGAIRFDGTTDYSPSLKSRISISRDTSNNQFSLRMSSVTPEDTAVYYCARYGVVSDHGGLDYWGQGTQVTVSS", "met"),
    ("SVG18 (VHH, not shown: large carriers) VHH: QVQLQQSGGGLVQPGGSLRLSCAASGFTFSSYAMSWVRQAPGKGLEWVSAINSGGDIISYADSVKGRFTISRDNAKNTLYLQMNSLKPEDTAVYYCAKSPIVRTYGGYDYWGQGTQVTVSS", "met"),
    ("SVG03 (VHH, not shown: large carriers) VHH: QVQLQESGGGLVQAGGSLRLSCAASGRTFSNYVMGWFRQAPGKEREFVSAISWNGVSTFYADSVKGRFTISRDNAKNTVYLQMNSLKPEDTAVYYCAADERFVVRYNYWGQGTQVTVSS", "not met"),
]

Could you now consider this next binder?
Below 0.8 A450 on absorbance at 450 nm? Entry SVG13 (VHH) VHH: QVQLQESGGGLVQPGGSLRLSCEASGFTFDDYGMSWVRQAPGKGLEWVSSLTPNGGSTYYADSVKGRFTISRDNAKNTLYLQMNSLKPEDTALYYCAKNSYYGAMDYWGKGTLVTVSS met
